molecular target: LRX4^ΔE-FLAG (Arabidopsis thaliana) (UniProt Q9LHF1); test: BLI
pKd: −log10 of the molar value.
recordedMetric: pKd

>>> print(df.to_string())
                                     binder  recordedmetric  quantitativereadout
0  ATTKYISYQSLKRNSVPCSRRGASYYNCQNGAQANPYSRGCSKIARCRS [RALF1, in vitro synthesized peptide]             pKd                 8.30
